From: the supplement of paper PMC6555819

# Tested on: PPARg:RXRa 30nM:10nM, anti-RXR (NR concentration 30 nM, RXRa partner concentration 10 nM)
# METHOD: PBM binding z-score (relative to random genomic background probes); higher = stronger binding; sequences stand for … in GC…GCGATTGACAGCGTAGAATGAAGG
Would you mind labelling by PBM binding z-score? At or over 3 is met, under is not met.

>>> label_class("ATCAAAAGGTCGAAGGTGAGTATACCCACCCGAA")
"met"
>>> label_class("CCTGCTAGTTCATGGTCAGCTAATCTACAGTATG")
"not met"
>>> label_class("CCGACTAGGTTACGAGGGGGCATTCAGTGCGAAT")
"not met"
>>> label_class("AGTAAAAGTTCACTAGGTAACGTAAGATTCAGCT")
"not met"
>>> label_class("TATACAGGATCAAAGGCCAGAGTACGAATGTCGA")
"not met"
>>> label_class("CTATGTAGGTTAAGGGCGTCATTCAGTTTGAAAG")
"met"
>>> label_class("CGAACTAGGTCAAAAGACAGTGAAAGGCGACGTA")
"met"
>>> label_class("GCTGCTAGGTCAACTGAAGGTCAGCTAAAGCTCG")
"not met"
>>> label_class("ATATGTAGGTTAAGGTCATTCAGAAAGTAGGGAA")
"met"
>>> label_class("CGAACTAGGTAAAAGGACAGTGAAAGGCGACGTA")
"met"
>>> label_class("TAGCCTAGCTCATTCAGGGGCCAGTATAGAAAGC")
"not met"
>>> label_class("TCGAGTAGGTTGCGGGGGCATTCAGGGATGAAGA")
"not met"
>>> label_class("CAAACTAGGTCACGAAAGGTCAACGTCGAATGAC")
"met"
>>> label_class("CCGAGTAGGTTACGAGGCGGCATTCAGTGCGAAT")
"not met"
>>> label_class("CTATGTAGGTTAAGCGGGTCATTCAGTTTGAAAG")
"not met"
>>> label_class("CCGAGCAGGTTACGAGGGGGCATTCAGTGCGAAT")
"not met"
>>> label_class("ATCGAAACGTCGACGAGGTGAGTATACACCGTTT")
"not met"
>>> label_class("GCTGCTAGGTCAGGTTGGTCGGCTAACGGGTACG")
"not met"
>>> label_class("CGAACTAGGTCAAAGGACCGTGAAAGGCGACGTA")
"met"
>>> label_class("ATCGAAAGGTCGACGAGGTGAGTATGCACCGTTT")
"not met"
>>> label_class("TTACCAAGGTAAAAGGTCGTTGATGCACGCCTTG")
"met"
>>> label_class("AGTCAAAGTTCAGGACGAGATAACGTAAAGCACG")
"not met"
>>> label_class("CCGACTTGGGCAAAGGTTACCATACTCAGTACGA")
"met"
>>> label_class("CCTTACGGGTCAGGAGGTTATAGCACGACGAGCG")
"not met"
